# assay_system: HLA-A*69:01
# experiment: IEDB peptide-MHC binding, purified MHC/competitive/fluorescence; filed as Kd, often an IC50 or EC50 that approximates it; bounds were set here for any values at or beyond the usual limits of such assays
# protocol_conditions: source organism: Four Corners hantavirus
assay_metric: Kd

Ask: // returns reported Kd for input PELGAFFAI
Reply: ≥ 20 µM

* * *

# assay_system: HLA-C*15:02
# experiment: IEDB peptide-MHC binding, purified MHC/direct/fluorescence; filed as Kd, often an IC50 or EC50 that approximates it; bounds were set here for any values at or beyond the usual limits of such assays
# protocol_conditions: source organism: Mycobacterium tuberculosis variant bovis
pKd: −log10 of the molar value.
assay_metric: pKd

Ask: Value lookup for pKd; key = VTNDGVIFF
Reply: ≤ 4.70

* * *

# assay_system: HLA-A*68:01
# experiment: IEDB peptide-MHC binding, purified MHC/competitive/radioactivity; filed as Kd, often an IC50 or EC50 that approximates it; bounds were set here for any values at or beyond the usual limits of such assays
# protocol_conditions: source organism: Vaccinia virus WR
Recorded measurements of log10 of Kd, one per entry
# log10 transformed; quantity=Kd; unit=nM

VTNLISETLK = 1.97
DMMLMIGNY = 2.89
YVEKEENMDK = 3.53
GARVIWMDAY = 2.99
NVPERQLILR = -1.18
MVSVSDFRDY = 3.60

Ask: GET /values?readout=log10 of Kd&system=HLA-A*68:01&item= DMSHLKVALY
Reply: 2.93

Ask: Write down the reported log10 of Kd of LTAVCMKCFK , test system: HLA-A*68:01.
Reply: 0.59

* * *

# assay_system: HLA-B*08:01
# experiment: IEDB peptide-MHC binding, purified MHC/competitive/radioactivity; filed as Kd, often an IC50 or EC50 that approximates it; bounds were set here for any values at or beyond the usual limits of such assays
# protocol_conditions: source organism: Dengue virus 3 Sri Lanka/1266/2000
assay_metric: Kd (nM)
Entry rule: numbers only, all in nM.

Ask: Look up Kd: LGRNKRPRL
Reply: 42.7

* * *

# assay_system: HLA-A*23:01
# experiment: IEDB peptide-MHC binding, purified MHC/direct/fluorescence; filed as Kd, often an IC50 or EC50 that approximates it; bounds were set here for any values at or beyond the usual limits of such assays
# protocol_conditions: source organism: Ravn virus - Ravn, Kenya, 1987
assay_metric: Kd

FPSNMMVVT = ≥ 20 µM

Consider the additional sequence presented here.
Ask: Reported Kd for HLA-A*23:01, given GLSFLNPEK ?
Reply: ≥ 20 µM

* * *

# assay_system: HLA-B*58:01
# experiment: IEDB peptide-MHC binding, purified MHC/direct/fluorescence; filed as Kd, often an IC50 or EC50 that approximates it; bounds were set here for any values at or beyond the usual limits of such assays
# protocol_conditions: source organism: Pseudomonas putida
pKd: −log10 of the molar value.
assay_metric: pKd

Ask: Given the sequence DLSNSMRDF , what is its reported pKd?
Reply: ≤ 4.70

* * *

# assay_system: HLA-B*38:01
# experiment: IEDB peptide-MHC binding, purified MHC/direct/fluorescence; filed as Kd, often an IC50 or EC50 that approximates it; bounds were set here for any values at or beyond the usual limits of such assays
# protocol_conditions: source organism: Ravn virus - Ravn, Kenya, 1987
pKd: −log10 of the molar value.
assay_metric: pKd

Ask: // fetch HLA-B*38:01 pKd for SRTPSGKRL
Reply: ≤ 4.70

* * *

# assay_system: HLA-A*02:01
# experiment: IEDB peptide-MHC binding, purified MHC/direct/fluorescence; filed as Kd, often an IC50 or EC50 that approximates it; bounds were set here for any values at or beyond the usual limits of such assays
# protocol_conditions: source organism: Salmonella enterica subsp. enterica serovar Typhimurium
assay_metric: Kd (µM)
Numbers only; they are read as µM.

Ask: Reported Kd for FTGEYLLRL : what is it?
Reply: 0.229

* * *

# assay_system: HLA-A*69:01
# experiment: IEDB peptide-MHC binding, purified MHC/direct/fluorescence; filed as Kd, often an IC50 or EC50 that approximates it; bounds were set here for any values at or beyond the usual limits of such assays
# protocol_conditions: source organism: Cryptosporidium parvum Iowa II
The sequences listed here are annotated with their Kd.

Ask: Return reported Kd; argument: ILTRLALFF
Reply: ≥ 20 µM

Ask: Quick one: Kd for DHIPIINTL ?
Reply: ≥ 20 µM

* * *

# assay_system: HLA-B*08:01
# experiment: IEDB peptide-MHC binding, purified MHC/direct/fluorescence; filed as Kd, often an IC50 or EC50 that approximates it; bounds were set here for any values at or beyond the usual limits of such assays
# protocol_conditions: source organism: Rickettsia prowazekii
assay_metric: Kd (nM)
Report only the number, with the unit nM understood.

Ask: Please give the measured Kd for this sequence: NLKLYGAEF
Reply: 433

* * *

# assay_system: HLA-A*02:01
# experiment: IEDB peptide-MHC binding, purified MHC/competitive/fluorescence; filed as Kd, often an IC50 or EC50 that approximates it; bounds were set here for any values at or beyond the usual limits of such assays
# protocol_conditions: source organism: Bacillus thuringiensis serovar israelensis ATCC 35646
assay_metric: Kd

Ask: Kd lookup needed for ITMYVAFEQ , thanks.
Reply: ≥ 20 µM

* * *

# assay_system: HLA-B*18:01
# experiment: IEDB peptide-MHC binding, purified MHC/competitive/fluorescence; filed as Kd, often an IC50 or EC50 that approximates it; bounds were set here for any values at or beyond the usual limits of such assays
# protocol_conditions: source organism: Orthohantavirus tulaense
assay_metric: Kd

Ask: Any idea what Kd was measured for SLMSRVVYK ?
Reply: ≥ 20 µM

* * *

# assay_system: HLA-A*69:01
# experiment: IEDB peptide-MHC binding, purified MHC/direct/fluorescence; filed as Kd, often an IC50 or EC50 that approximates it; bounds were set here for any values at or beyond the usual limits of such assays
# protocol_conditions: source organism: Amur virus
pKd: −log10 of the molar value.
assay_metric: pKd

Ask: Bench note: what pKd did TLTRGQNTV show?
Reply: ≤ 4.70

* * *

# assay_system: HLA-B*15:17
# experiment: IEDB peptide-MHC binding, purified MHC/direct/fluorescence; filed as Kd, often an IC50 or EC50 that approximates it; bounds were set here for any values at or beyond the usual limits of such assays
# protocol_conditions: source organism: Camelpox virus CMS
assay_metric: Kd (nM)
Could you give me the number in nM? Just the number is fine.

Ask: Entry VSEKYTDMY : reported Kd = ?
Reply: 126

* * *

# assay_system: HLA-A*01:01
# experiment: IEDB peptide-MHC binding, purified MHC/direct/fluorescence; filed as Kd, often an IC50 or EC50 that approximates it; bounds were set here for any values at or beyond the usual limits of such assays
# protocol_conditions: source organism: Camelpox virus M-96
pKd: −log10 of the molar value.
# key: entry, value: pKd

NTDAFSREY = 8.15

Ask: Look up pKd with HLA-A*01:01 for this sequence: SYVFNFHKY
Reply: ≤ 4.70

Ask: Request: pKd, test system HLA-A*01:01, entry LEYGANYFL
Reply: ≤ 4.70

* * *

# assay_system: HLA-A*03:01
# experiment: IEDB peptide-MHC binding, purified MHC/competitive/radioactivity; filed as Kd, often an IC50 or EC50 that approximates it; bounds were set here for any values at or beyond the usual limits of such assays
# protocol_conditions: source organism: Mammarenavirus machupoense
assay_metric: Kd (µM)
The reply should contain only the number, in µM.

Ask: Endpoint output: Kd of SSFDYCSTNH . Value?
Reply: 17.1

* * *

# assay_system: HLA-A*31:01
# experiment: IEDB peptide-MHC binding, purified MHC/competitive/fluorescence; filed as Kd, often an IC50 or EC50 that approximates it; bounds were set here for any values at or beyond the usual limits of such assays
# protocol_conditions: source organism: Variola major virus
assay_metric: Kd (nM)
Enter your answer as a number in nM; do not include the unit.

Ask: Give its Kd value. Item: RYPGVMYAF
Reply: 122

* * *

# assay_system: HLA-B*08:01
# experiment: IEDB peptide-MHC binding, purified MHC/direct/fluorescence; filed as Kd, often an IC50 or EC50 that approximates it; bounds were set here for any values at or beyond the usual limits of such assays
# protocol_conditions: source organism: Mycobacterium tuberculosis
assay_metric: pKd
Remember the convention: pKd equals -log10 of concentration in molar.

Ask: What does the data say about its pKd? Entry: IMYNYPAML
Reply: 5.57

* * *

# assay_system: HLA-C*14:02
# experiment: IEDB peptide-MHC binding, purified MHC/competitive/fluorescence; filed as Kd, often an IC50 or EC50 that approximates it; bounds were set here for any values at or beyond the usual limits of such assays
# protocol_conditions: source organism: Entamoeba histolytica
pKd: −log10 of the molar value.
assay_metric: pKd

Ask: What pKd value was documented for this sequence, SYMSTFPLF ?
Reply: ≥ 10.00
